Ref: patent US5599808A

# experimental_details: Concentration of dissolved indolocarbazole obtained in aqueous solutions (HPLC)
# condition: peg 600/ba/pvp/h2o, organic solvent or mixture, Concentration Obtained (saturation level), Example 22: 50% PEG 600, 2% BA, 10% PVP, 38% H2O; 10 mg added
Quick reference: solubility thermodynamic of the listed items.
property_label: solubility thermodynamic (mg/mL)

>>> measured_number("COC(=O)C1(O)CC2OC1(C)n1c3ccccc3c3c4c(c5c6ccccc6n2c5c31)C(=O)NC4 (stereo not drawn) [Compound K-252a]")
21.2
>>> measured_number("COC(=O)C1(O)CC2OC1(C)n1c3ccccc3c3c4c(c5c6cc(O)ccc6n2c5c31)C(=O)NC4 (stereo not drawn) [Compound B]")
16.4
>>> measured_number("CN[C@@H]1C[C@H]2O[C@@](C)([C@@H]1OC)n1c3ccccc3c3c4c(c5c6ccccc6n2c5c31)C(=O)NC4 [Staurosporine, staurosporine]")
8.4

---

# experimental_details: Concentration of dissolved indolocarbazole obtained in aqueous solutions (HPLC)
# condition: peg 400/ba/pluronic l64/h2o, organic solvent or mixture, Concentration Obtained, Example 9: 47.5% PEG 400, 2.5% BA, 2.5% Pluronic L64, 47.5% H2O; target 10 mg/ml
property_label: solubility thermodynamic (µg/mL)

>>> measured_number("COC(=O)C1(O)CC2OC1(C)n1c3ccccc3c3c4c(c5c6ccccc6n2c5c31)C(=O)NC4 (stereo not shown) [Compound K-252a]")
1800

---

# experimental_details: physchem
# condition: peg 400/ba/h2o, organic solvent or mixture, Concentration Obtained
property_label: solubility thermodynamic (µg/mL)

>>> measured_number("CC[S+]([O-])Cc1ccc2c(c1)c1c3c(c4c5ccccc5n5c4c1n2C1CC(O)(C(=O)OC)C5(C)O1)CNC3=O (stereo not shown)")
1010

---

# experimental_details: physchem
# condition: peg 600/ba/pvp/h2o, organic solvent or mixture, Concentration Obtained (saturation level)
property_label: solubility thermodynamic (mg/mL)

>>> measured_number("CC[S+]([O-])Cc1ccc2c(c1)c1c3c(c4c5ccccc5n5c4c1n2C1CC(O)(C(=O)OC)C5(C)O1)CNC3=O (centres unmarked) [Compound C]")
4.6
>>> measured_number("COC1(CO)CC2OC1(C)n1c3ccccc3c3c4c(c5c6ccccc6n2c5c31)C(=O)NC4 (centres unmarked) [Compound A]")
40

---

# experimental_details: Concentration of dissolved indolocarbazole obtained in aqueous solutions (HPLC)
# condition: peg 600/ba/pvp/h2o, organic solvent or mixture, Concentration Obtained, Example 14: 47.5% PEG 600, 2.5% BA, 2.5% PVP, 47.5% H2O; target 10 mg/ml
property_label: solubility thermodynamic (µg/mL)

>>> measured_number("COC(=O)C1(O)CC2OC1(C)n1c3ccccc3c3c4c(c5c6cc(O)ccc6n2c5c31)C(=O)NC4 (centres unmarked) [Compound B]")
10000
>>> measured_number("COC(=O)C1(O)CC2OC1(C)n1c3ccccc3c3c4c(c5c6ccccc6n2c5c31)C(=O)NC4 (centres unmarked) [Compound K-252a]")
10000

---

Each record here notes measured solubility thermodynamic.
# experimental_details: Concentration of dissolved indolocarbazole obtained in aqueous solutions (HPLC)
# condition: peg 1000/ba/pvp/h2o, organic solvent or mixture, Concentration Obtained, Example 19: 40% PEG 1000, 2% BA, 10% PVP, 48% H2O; target 10 mg/ml
# Protocol: In general, a solution of the concentrate can be prepared by combining a dispersant such as polyvinylpyrrolidone C-30 and a selected organic solvent such as propylene glycol into a beaker. The mixture is continuously stirred until completely dissolved. […] Fifty g of PEG-400 were added to 50 ml of water and the mixture vigorously stirred until completely dissolved. […] Ten μl of the supernatant was removed, diluted with DMSO (100:1) and the concentration of dissolved K-252a determined by HPLC. […]
property_label: solubility thermodynamic (µg/mL)

>>> measured_number("COC(=O)C1(O)CC2OC1(C)n1c3ccccc3c3c4c(c5c6cc(O)ccc6n2c5c31)C(=O)NC4 (centres unmarked) [Compound B]")
10000
>>> measured_number("COC(=O)C1(O)CC2OC1(C)n1c3ccccc3c3c4c(c5c6ccccc6n2c5c31)C(=O)NC4 (centres unmarked) [Compound K-252a]")
10000
